ASSAY NAME: Administration of 60 mg IR efletirizine gelatin capsule: influence of a meal
Format: in vivo, patients
CONDITION CONTEXT: human, in vivo, oral, 60 mg, 60 mg gelatin capsule; fasting
OUTCOME MEASURE: Cmax (ng/mL)
Numbers only, in ng/mL.

Problem: # Cmax lookup, item O=C(O)COCCN1CCN(C(c2ccc(F)cc2)c2ccc(F)cc2)CC1
Solution: 1470

---

ASSAY NAME: Administration of 2 times 15 mg of efletirizine in solution with a 12-hour interval
Assay type: in vivo, healthy volunteers
CONDITION CONTEXT: human, plasma, oral, 15 mg, 2 times 15 mg in solution, second dose, read-out: tmax (2)
OUTCOME MEASURE: Tmax (h)
Give bare numbers, in h.

Problem: # Tmax lookup, item O=C(O)COCCN1CCN(C(c2ccc(F)cc2)c2ccc(F)cc2)CC1 [efletirizine]
Solution: 12.6
